Cited source for all entries: PubChem BioAssay

target: E3 ubiquitin-protein ligase XIAP (Homo sapiens) (UniProt P98170); test: XIAP binders, primary screen, biophysical, small-molecule microarray, fluorescence 635 nm (AID 1181); conditions: small-molecule microarray binding, higher = more signal;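 note: score merges 667 nm emission and signal to noise over triplicate slides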
Sequence (P98170 whole entry, looked up): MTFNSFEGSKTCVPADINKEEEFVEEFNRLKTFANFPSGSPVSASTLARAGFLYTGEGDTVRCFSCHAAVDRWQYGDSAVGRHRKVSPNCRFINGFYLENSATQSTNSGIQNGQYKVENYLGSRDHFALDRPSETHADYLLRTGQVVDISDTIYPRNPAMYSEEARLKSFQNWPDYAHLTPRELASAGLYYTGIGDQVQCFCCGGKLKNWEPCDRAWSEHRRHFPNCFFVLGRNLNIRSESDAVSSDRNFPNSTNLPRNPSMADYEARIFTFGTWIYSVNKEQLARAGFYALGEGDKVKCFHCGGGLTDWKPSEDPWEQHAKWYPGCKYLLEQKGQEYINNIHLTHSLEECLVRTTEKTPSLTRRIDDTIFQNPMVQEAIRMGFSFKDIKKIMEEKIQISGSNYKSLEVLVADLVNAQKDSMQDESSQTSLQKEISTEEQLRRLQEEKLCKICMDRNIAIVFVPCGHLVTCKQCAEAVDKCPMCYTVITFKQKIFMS
quantity-kind: composite z-score

Reported composite z-score (E3 ubiquitin-protein ligase XIAP (Homo sapiens) (UniProt P98170)) for entry CC(C)=CCN[C@H](CO)c1ccccc1 is 0.213

Reported composite z-score (E3 ubiquitin-protein ligase XIAP (Homo sapiens) (UniProt P98170)) for entry NC(=O)NCC#Cc1ccc2c(c1)[C@]1(C(=O)N2)[C@H](C(N)=O)[C@H]2C(=O)O[C@H](c3ccccc3)[C@H](c3ccccc3)N2[C@@H]1c1ccc(O)cc1 is 0.156

Reported composite z-score (E3 ubiquitin-protein ligase XIAP (Homo sapiens) (UniProt P98170)) for entry Cc1ccc(S[C@]2(C(=O)O)CC(=O)N(C(C)C)[C@@H]2c2ccc(CO)cc2I)cc1 is -0.122

---

assay: small-molecule binders of probe aNOTCH3, primary screen, biochemical, small-molecule microarray, 635/667 nm fluorescence (AID 1120); conditions: higher = more signal;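 note: probe is a biotin-tagged antibody raised against NOTCH3 rather than NOTCH3 protein; score merges spot fluorescence near 667 nm with spot signal to noise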
quantity-kind: composite z-score

Reported composite z-score for CCOC(=O)C1=C[C@@H](C(C)(C)C)N(S(=O)(=O)c2ccc(C)cc2)[C@H]1c1ccc(F)cc1 was 0.169

Reported composite z-score for Cc1ccc(S[C@]2(C(=O)NCCCN(C)C)CC(=O)N(Cc3cc(C(F)(F)F)cc(C(F)(F)F)c3)[C@@H]2c2ccc(CO)cc2)cc1 was -0.149

Reported composite z-score for COC(=O)[C@@]1(CCC(=O)OC(C)(C)C)N=C(c2ccc(OCCCO)cc2)O[C@H]1c1ccccc1N=[N+]=[N-] was -0.076

---

experiment: small-molecule microarray binders of probe aCHRDL2, primary screen, biochemical, biotinylated probe, 635/667 nm fluorescence (AID 1100); details: higher = more signal
Assignment: determine reported composite z-score for the given compounds.
Form field (numeric): enter value without unit.

Reported composite z-score for COC(=O)[C@@]1(Cc2ccc(F)cc2)[C@H]2c3cc(C(=O)N(C)C)n(Cc4ccccc4)c3C[C@H]2CN1C(=O)c1ccccc1 was 0.971

Reported composite z-score for COCCOC(=O)N1C(=O)[C@@]2(c3ccccc31)[C@H](C(=O)N1CCc3cc(OC)c(OC)cc3C1)[C@H]1C(=O)O[C@H](c3ccccc3)[C@H](c3ccccc3)N1[C@@H]2c1ccc(OCCO)cc1 was 0.395

Reported composite z-score for CC(C)CNC(=O)[C@@]1(Cc2ccccc2I)c2ccccc2C(=O)N(C2CCCCC2)[C@H]1c1ccc(CO)cc1 was 1.02

Reported composite z-score for CCOC(=O)C[C@H]1[C@H](OC(=O)c2ccc(C(=O)c3ccccc3)cc2)[C@@H](NC(=O)c2ccc3ccccc3n2)c2cc(OCCCO)ccc2N1C(=O)c1ccccc1 was 0.628

Reported composite z-score for C=CCN1C(=O)[C@@]2(Cc3ccccc31)N=C(c1ccc(OCCCO)cc1)O[C@H]2c1ccccc1 was 0.935

Reported composite z-score for COCCOC(=O)N1C(=O)[C@@]2(c3cc(C#Cc4ccc(OC)cc4)ccc31)[C@H](c1ccc(OCCO)cc1)N1[C@H](c3ccccc3)[C@H](c3ccccc3)OC(=O)[C@H]1[C@@H]2C(=O)N1CCN(c2ncccn2)CC1 was 0.257

Reported composite z-score for CCOC(=O)C1=CC[C@@H](c2ccccc2)N(S(=O)(=O)c2ccc(C)cc2)[C@H]1c1ccccc1C was 0.431

Reported composite z-score for C=C[C@@H](COC(=O)OC(C)(C)C)N(Cc1ccc(OC)cc1)S(=O)(=O)c1ccc(Br)cc1 was 0.166

Reported composite z-score for O=C(NC1CC1)[C@@H]1c2ccccc2C(=O)N(Cc2ccccc2Cl)[C@H]1c1ccc(CO)cc1 was 1.02

Reported composite z-score for CCOC(=O)C[C@H]1[C@H](OC(=O)c2ccccc2-c2ccccc2)[C@@H](NC(=O)CC(C)C)c2cc(OCCCO)ccc2N1C(=O)Cc1ccc(OC)cc1 was 0.0198

Reported composite z-score for COc1ccc(-c2cc3c(c(-c4ccc(Oc5ccccc5)cc4)n2)[Si](C(C)C)(C(C)C)OC3)cn1 was -0.262

Reported composite z-score for CN1C(=O)C2C=CC(C(O)C#Cc3ccccc3)N(N3CCCCC3)C2C1=O (stereo not drawn) was 1.09

Reported composite z-score for CN(C)CCCCCCNC(=O)[C@@H]1C[C@@H]2C(=O)N[C@@H](Cc3ccccc3)C(=O)N2[C@@H]1c1ccc(O)cc1 was -0.127

Reported composite z-score for COc1ccc(C#Cc2ccc3c(c2)[C@]2(C(=O)N3)[C@H](C(=O)Nc3nc4ccccc4s3)[C@H]3C(=O)O[C@H](c4ccccc4)[C@H](c4ccccc4)N3[C@@H]2c2ccc(O)cc2)cc1 was 0.144

Reported composite z-score for CCCC[C@@H]1C[C@H]1[C@@H](NC(=O)C(C)(C)C)c1ccc(C(F)(F)F)cc1 was 1.44

Reported composite z-score for NC(=O)NCC#Cc1ccc2c(c1)[C@]1(C(=O)N2)[C@H](C(N)=O)[C@H]2C(=O)O[C@H](c3ccccc3)[C@H](c3ccccc3)N2[C@@H]1c1ccc(O)cc1 was -0.142

Reported composite z-score for COc1cccc(-c2cccc(=O)o2)c1 was 0.513

Reported composite z-score for CC(C)OC(=O)C=C1C[C@@H](c2ccccn2)O[C@@H](c2ccccn2)O1 was -1.68

Reported composite z-score for COC(=O)[C@@]1(Cc2ccc(OC)cc2)[C@H]2c3cc(C(=O)N(C)C)n(Cc4ccccn4)c3C[C@H]2CN1C(=O)c1ccccc1 was 1.36

Reported composite z-score for CC(C)C(=C=CC[C@@H](O)c1ccc(OCCO)cc1)C[C@@H](O)COCc1ccccc1 was -0.222

Reported composite z-score for O=C1C2C=CC(C(O)c3cccc4ccccc34)N(Nc3ccccc3F)C2C(=O)N1c1ccccc1 (stereo not drawn) was 1.02

Reported composite z-score for C=C[C@H](OC)[C@@H](OC(=O)Nc1ccc(OC)cc1)c1ccc(O)c(F)c1 was 0.3

Reported composite z-score for COC(=O)[C@@]1(Cc2ccc(OC)cc2)[C@H]2c3cc(C(=O)N4CCCC4)n(CCN4CNCC4=O)c3C[C@H]2CN1C(=O)c1ccccc1 was 1.41

---

test: A549 cell viability effects, profiling panel, calcein-AM fluorescence, 48 h, basal (AID 1162); details: higher = more signal; note: test concentration not given here
Assignment: determine reported z-score for the given compounds.

Reported z-score for COCCOC(=O)N1C(=O)[C@@]2(c3cc(C#Cc4ccc(OC)cc4)ccc31)[C@H](c1ccc(O)cc1)N1[C@H](c3ccccc3)[C@H](c3ccccc3)OC(=O)[C@H]1[C@@H]2C(=O)N1CCc2cc(OC)c(OC)cc2C1 was -0.548

Reported z-score for COC(=O)[C@@]1(Cc2ccc(OC)cc2)[C@H]2c3cc(C(=O)N4CCCC4)n(CCN4CNCC4=O)c3C[C@H]2CN1C(=O)c1ccccc1 was -0.215

Reported z-score for COc1cc2c(cc1OC)CN(C(=O)[C@@H]1[C@H]3C(=O)O[C@H](c4ccccc4)[C@H](c4ccccc4)N3[C@H](c3ccc(O)cc3)[C@@]13C(=O)Nc1ccccc13)CC2 was 1.62

---

assay: A549 lung cancer cell viability effects, profiling panel, resazurin fluorescence, 24 h, PK04 Diversity Set (AID 1171); conditions: higher = more signal, called active from +8 up or from −8 down; note: test concentration not given here
quantity-kind: z-score
Form field (numeric): enter value without unit.

Reported z-score for CCCC[C@@H]1C[C@H]1[C@@H](NC(=O)c1ccco1)c1ccc(-c2ccccc2)cc1 was -1.04

Reported z-score for C=C(COC)/C(=C/C[C@H](OC(C)=O)c1ccc(CO)o1)c1cc(C(=O)OC)ccc1OC was -0.369

Reported z-score for COc1ccc([Si](C)(C)[C@H]2[C@H](CCO)O[C@@]3(C(=O)N(Cc4ccc(N(C=O)c5ccccc5)cc4)c4ccccc43)[C@@H]2C)cc1 was -1.68

Reported z-score for CC1CC/C=C\[C@H]2OC34C=CCN(C(C)(C)C)C(=O)[C@H]3N(CCO)C(=O)[C@@H]4C2C(=O)O1 (stereo partly drawn) was 0.283

Reported z-score for C=CC[C@@]12N=C(c3ccc(OCCCO)cc3)O[C@@H]1c1ccccc1N(C)C2=O was -0.0732

Reported z-score for COCCCNC(=O)[C@@]1(C)c2ccccc2C(=O)N(C(C)C)[C@H]1c1ccc(CO)cc1 was 0.601

Reported z-score for CO[C@H]1O[C@H](CO)[C@@H](OC(=O)Nc2ccc(Oc3ccccc3)cc2)[C@H](OC(=O)Nc2ccc3c(c2)OCO3)[C@H]1OC(=O)Nc1ccc2c(c1)OCO2 was 0.104

Reported z-score for CC(=O)NCCCC[C@@H]1NC(=O)[C@H]2C[C@@H](C(=O)NCCCCCCNC(=O)CS)[C@@H](c3ccc(O)cc3)N2C1=O was -0.689

Reported z-score for O=C(c1ccccc1)N1C(=O)[C@@]2(Cc3ccccc31)N=C(c1ccc(OCCCO)cc1)O[C@H]2c1ccccc1 was -1.62

Reported z-score for COC(=O)[C@@]1(Cc2ccc(F)cc2)[C@H]2c3cc(C(=O)N4CCCC4)n(CCCNc4ncc(C(F)(F)F)cc4Cl)c3C[C@H]2CN1C(=O)c1ccccc1 was -0.733

Reported z-score for CN1C(=O)C2C=CC(C(O)C#Cc3ccccc3)N(N3CCCCC3)C2C1=O (stereo not drawn) was -0.913

Reported z-score for O=C1OCCC/C=C\[C@H]2OC34C=CCN(Cc5ccccc5)C(=O)[C@H]3N(CCCO)C(=O)[C@@H]4C12 (stereo partly drawn) was 0.0483

Reported z-score for O=C(OCc1ccccc1)C1=CCC2c3[nH]c4ccccc4c3C(=O)C1N2S(=O)(=O)c1ccccc1[N+](=O)[O-] (stereo not drawn) was -0.311
